Tested on: C. elegans
test details: motility assay
Format: in vivo
Set-up: key: normal (−); slow (+); very slow (++); not motile/paralyzed (+++)
condition description: dilution 1/200 of stock (10.24 μg/μL; SK-03-92 1.024 μg/μL); Ive 1 ng/μL in all wells
quantity kind: Movement score, 1/200

{"compound": "COc1cc(O)cc(/C=C/c2ccccc2)c1 [CL-3, 3-hydroxy-5-methoxystilbene]", "assayed target": "C. elegans", "value reported": "+++"}
{"compound": "COc1cc(O)cc(C#Cc2ccccc2)c1 [SK-04-08]", "assayed target": "C. elegans", "value reported": "+++"}
{"compound": "COc1cc(O)cc(/C=C/Sc2ccccc2)c1 [CL-4]", "assayed target": "C. elegans", "value reported": "+++"}
{"compound": "CCC(C)CS/C=C/c1cc(O)cc(OC)c1 (centres unmarked) [SK-05-22]", "assayed target": "C. elegans", "value reported": "+++"}

Tested on C. elegans, the item COc1cc(O)cc(/C=C/Oc2ccc3ccccc3c2)c1 [SK-04-23] showed Movement score, 1/200 equal to ++

Tested on C. elegans, the item COc1cc(O)cc(/C=C/Oc2ccc(C)cc2)c1 [Compound A10] showed Movement score, 1/200 equal to +++

Tested on C. elegans, the item COc1cc(O)cc(/C=C/c2ccsc2)c1 [CL-5] showed Movement score, 1/200 equal to +++

Tested on C. elegans, the item COc1cc(O)cc(/C=C/SC2CCCCC2)c1 [SK-04-50] showed Movement score, 1/200 equal to +

Tested on C. elegans, the item COc1cc(O)cc(/C=C/Oc2cccc3ccccc23)c1 [SK-04-22] showed Movement score, 1/200 equal to +

Tested on C. elegans, the item COc1cc(O)cc(/C=C/Sc2cccc3ccccc23)c1 [SK-05-16] showed Movement score, 1/200 equal to ++

Tested on C. elegans, the item COc1cc(O)cc(/C=C/c2cc3ccccc3s2)c1 [SK-03-92] showed Movement score, 1/200 equal to −

Tested on C. elegans, the item COc1cc(O)cc(O/C=C/c2ccccc2)c1 [CL-2] showed Movement score, 1/200 equal to +++

Tested on C. elegans, the item COc1cc(O)cc(/C=C/c2cccs2)c1 [CL-6] showed Movement score, 1/200 equal to +++

Tested on C. elegans, the item CCOC(=O)/C=C\Sc1nc2ccccc2s1 [SK-04-59F1] showed Movement score, 1/200 equal to −

Tested on C. elegans, the item COc1cc(O)cc(/C=C/Sc2ccccc2C(C)C)c1 [SK-05-01] showed Movement score, 1/200 equal to −

Tested on C. elegans, the item CCOC(=O)/C=C\Sc1ccc(C(C)(C)C)cc1 [SK-04-57] showed Movement score, 1/200 equal to −

Tested on C. elegans, the item COc1cc(O)cc(/C=C/Oc2ccccc2)c1 [CL-1] showed Movement score, 1/200 equal to +++

Tested on C. elegans, the item COc1cc(O)cc(/C=C/Oc2cccc(C)c2)c1 [Compound A9] showed Movement score, 1/200 equal to +++

Tested on C. elegans, the item COc1ccc(O/C=C/c2cc(O)cc(OC)c2)cc1 [Compound A6] showed Movement score, 1/200 equal to +++

Tested on C. elegans, the item COc1cc(O)cc(/C=C/Sc2ccc3ccccc3c2)c1 [SK-05-17] showed Movement score, 1/200 equal to ++

---

Tested on: Mycobacterium fortuitum
test details: MIC assay
Assay type: cell-based
condition description: Mycolicibacterium fortuitum; Table 6; read-out: MIC M. fortuitum
quantity kind: MIC (µg/mL)
Dear colleague, please return just the value in µg/mL, with no unit written.

The recorded MIC for entry COc1cc(O)cc(/C=C/c2ccccc2)c1 [CL-3, 3-hydroxy-5-methoxystilbene] equals 16

The recorded MIC for entry COc1cc(O)cc(/C=C/Oc2ccc3ccccc3c2)c1 equals 128

The recorded MIC for entry CCOC(=O)/C=C\Sc1ccccc1C(=O)OC equals 64

The recorded MIC for entry CCOC(=O)/C=C\Sc1ccc(C(C)(C)C)cc1 equals 4

The recorded MIC for entry COc1cc(O)cc(C#Cc2ccccc2)c1 equals 32

The recorded MIC for entry COc1cc(O)cc(/C=C/c2cc3ccccc3s2)c1 equals 16

The recorded MIC for entry COc1cc(O)cc(/C=C/c2cccc(O)c2)c1 equals 64

The recorded MIC for entry COc1cc(O)cc(/C=C/Oc2cccc3ccccc23)c1 equals 128

---

Test system: C. elegans L1 larvae
test details: developmental assay
Type: in vivo
Design: key: dead (+++); distressed (++); slightly delayed (+); the same as M9-only untreated wells (−)
condition description: dilution 1/100; after four days; Ive 1 ng/μL in each well
quantity kind: Developmental score, 1/100

For orientation, consider the following solved cases.
{"compound": "COc1cc(O)cc(/C=C/Oc2cccc(OC)c2)c1 [Compound A8]", "Developmental score, 1/100": "+++"}
{"compound": "COc1cc(O)cc(/C=C/c2ccccc2)c1 [CL-3, 3-hydroxy-5-methoxystilbene]", "Developmental score, 1/100": "+++"}
{"compound": "COc1cc(O)cc(C#Cc2ccccc2)c1 [SK-04-08]", "Developmental score, 1/100": "+++"}
{"compound": "COc1cc(O)cc(/C=C/Sc2ccccc2)c1 [CL-4]", "Developmental score, 1/100": "+++"}
{"compound": "COc1cc(O)cc(/C=C/c2ccsc2)c1 [CL-5]", "Developmental score, 1/100": "+++"}

The recorded Developmental score, 1/100 for entry COc1cc(O)cc(/C=C/c2cccc(O)c2)c1 [SK-04-03] equals +++

The recorded Developmental score, 1/100 for entry COc1cc(O)cc(/C=C/Oc2cccc(C)c2)c1 [Compound A9] equals +++

The recorded Developmental score, 1/100 for entry COc1cc(O)cc(/C=C/SC2CCCCC2)c1 [SK-04-50] equals +++

The recorded Developmental score, 1/100 for entry COc1ccc(O/C=C/c2cc(O)cc(OC)c2)cc1 [Compound A6] equals +++

The recorded Developmental score, 1/100 for entry COc1cc(O)cc(/C=C/Oc2ccc(C)cc2)c1 [Compound A10] equals +++

The recorded Developmental score, 1/100 for entry COc1cc(O)cc(/C=C/Sc2ccc3ccccc3c2)c1 [SK-05-17] equals +++

The recorded Developmental score, 1/100 for entry COc1cc(O)cc(/C=C/Oc2ccc3ccccc3c2)c1 [SK-04-23] equals +++

The recorded Developmental score, 1/100 for entry CCC(C)CS/C=C/c1cc(O)cc(OC)c1 (stereo not drawn) [SK-05-22] equals +++

The recorded Developmental score, 1/100 for entry COc1cc(O)cc(/C=C/Sc2cccc3ccccc23)c1 [SK-05-16] equals ++

The recorded Developmental score, 1/100 for entry COc1cc(O)cc(/C=C/c2ccc3ccccc3c2)c1 [SK-03-28F2] equals +++

---

Tested on: Staphylococcus aureus ATCC 29213
test details: microbe, parasite or virus in culture
Type: cell-based
condition description: Staphylococcus aureus, ATCC29213; per-compound listing, Example 6; read-out: MIC S. aureus
Here the recorded MIC is given for each entry.
Dear colleague, please return just the value in µg/mL, with no unit written.

For orientation, consider the following solved cases.
{"compound": "CCC(C)CS/C=C/c1cc(O)cc(OC)c1 (centres unmarked)", "assayed target": "Staphylococcus aureus ATCC 29213", "endpoint unit": "µg/mL", "value reported": 16}
{"compound": "Oc1cc(O)cc(/C=C/c2csc3ccccc23)c1", "assayed target": "Staphylococcus aureus ATCC 29213", "endpoint unit": "µg/mL", "value reported": 32}
{"compound": "COc1cc(O)cc(/C=C/c2ccc3ccccc3c2)c1", "assayed target": "Staphylococcus aureus ATCC 29213", "endpoint unit": "µg/mL", "value reported": 8}

The recorded MIC for entry COc1cc(O)cc(O/C=C/c2ccccc2)c1 equals 32

The recorded MIC for entry COc1cc(O)cc(/C=C/Oc2cccc(OC)c2)c1 equals 32

---

Here the recorded MIC B. cereus, G+ (anthrax surrogate) is given for each entry.
Test system: Bacillus cereus
test details: microbe, parasite or virus in culture
Type: cell-based
condition description: Table 3
Dear colleague, please return just the value in µg/mL, with no unit written.

For orientation, consider the following solved cases.
{"molecule": "COc1cc(O)cc(/C=C/Sc2ccccc2)c1 [CL-4]", "MIC B. cereus, G+ (anthrax surrogate) [µg/mL]": 16}
{"molecule": "COc1cc(O)cc(/C=C/Oc2ccc(C)cc2)c1 [Compound A10]", "MIC B. cereus, G+ (anthrax surrogate) [µg/mL]": 64}
{"molecule": "COc1cc(O)cc(/C=C/c2cccs2)c1 [CL-6]", "MIC B. cereus, G+ (anthrax surrogate) [µg/mL]": 32}
{"molecule": "COc1cc(O)cc(O/C=C/c2ccccc2)c1 [CL-2]", "MIC B. cereus, G+ (anthrax surrogate) [µg/mL]": 64}

Then this molecule:
The recorded MIC B. cereus, G+ (anthrax surrogate) for entry COc1cc(O)cc(/C=C/Oc2cccc(OC)c2)c1 [Compound A8] equals 64
